Measured IC50 on Solute carrier family 22 member 1 (Homo sapiens) follows.
experimentalEndpoint: IC50 (µM)

INSERT INTO measurements (compound, testtarget, experimentalendpoint, unitabbrev, reportedresult) VALUES
  ('CC(C)NCC(O)COc1cccc2ccccc12 (configuration not stated) [PROPRANOLOL]', 'Solute carrier family 22 member 1 (Homo sapiens)', 'IC50', 'µM', 63.2),
  ('CN(C)CCCN1c2ccccc2Sc2ccc(Cl)cc21 [CHLORPROMAZINE]', 'Solute carrier family 22 member 1 (Homo sapiens)', 'IC50', 'µM', 27),
  ('CCN(CC)CCNC(=O)c1cc(Cl)c(N)cc1OC [METOCLOPRAMIDE]', 'Solute carrier family 22 member 1 (Homo sapiens)', 'IC50', 'µM', 94.8),
  ('CN(C)CCCN1c2ccccc2Sc2ccccc21 [PROMAZINE]', 'Solute carrier family 22 member 1 (Homo sapiens)', 'IC50', 'µM', 17.2),
  ('C=CCOc1ccccc1OCC(O)CNC(C)C (configuration not stated) [OXPRENOLOL]', 'Solute carrier family 22 member 1 (Homo sapiens)', 'IC50', 'µM', 28.6),
  ('CN1CCc2cccc3c2[C@H]1Cc1ccc(O)c(O)c1-3 [APOMORPHINE]', 'Solute carrier family 22 member 1 (Homo sapiens)', 'IC50', 'µM', 20.8),
  ('C[C@]12CC[C@H]3[C@@H](CCC4=CC(=O)CC[C@@H]43)[C@@H]1CC[C@@H]2O [NANDROLONE]', 'Solute carrier family 22 member 1 (Homo sapiens)', 'IC50', 'µM', 35.1);

---

# testTarget: OCT1 (SLC22A1) (Homo sapiens, UniProt O15245)
# measurementNotes: in vitro
# conditionParameters: HEK293 cells that express human OCT1, probe 4-(4-(dimethylamino)styryl)-N-methylpyridinium
experimentalEndpoint: inhibition at 100 µM (%)

INSERT INTO measurements (compound, experimentalendpoint, unitabbrev, reportedresult) VALUES
  ('COc1ccc([C@@H]2Sc3ccccc3N(CCN(C)C)C(=O)[C@@H]2OC(C)=O)cc1', 'inhibition at 100 µM', '%', 65.5),
  ('C[C@H]1c2cccc(O)c2C(=O)C2=C(O)[C@]3(O)C(=O)C(C(N)=O)=C(O)[C@@H](N(C)C)[C@@H]3[C@@H](O)[C@@H]21', 'inhibition at 100 µM', '%', 27.4),
  ('CN1C[C@H](C(=O)N[C@]2(C)O[C@@]3(O)[C@@H]4CCCN4C(=O)[C@H](Cc4ccccc4)N3C2=O)C=C2c3cccc4[nH]cc(c34)C[C@H]21', 'inhibition at 100 µM', '%', 16.7),
  ('CN1CCc2cccc3c2[C@H]1Cc1ccc(O)c(O)c1-3', 'inhibition at 100 µM', '%', 69),
  ('Nc1nc2c(ncn2COCCO)c(=O)[nH]1', 'inhibition at 100 µM', '%', -3.9),
  ('CN[C@H](CC(C)C)C(=O)N[C@H]1C(=O)N[C@@H](CC(N)=O)C(=O)N[C@H]2C(=O)N[C@H]3C(=O)N[C@H](C(=O)N[C@H](C(=O)O)c4cc(O)cc(O)c4-c4cc3ccc4O)[C@H](O)c3ccc(c(Cl)c3)Oc3cc2cc(c3O[C@@H]2O[C@H](CO)[C@@H](O)[C@H](O)[C@H]2O[C@H]2C[C@](C)(N)[C@H](O)[C@H](C)O2)Oc2ccc(cc2Cl)[C@H]1O', 'inhibition at 100 µM', '%', 7.1),
  ('C=C[C@H]1C[N@@]2CC[C@H]1C[C@@H]2[C@@H](O)c1ccnc2ccc(OC)cc12', 'inhibition at 100 µM', '%', 62.9),
  ('CC12CC3CC(C)(C1)CC(N)(C3)C2 [MEMANTINE]', 'inhibition at 100 µM', '%', 58.6),
  ('CN1CCN(CCCN2c3ccccc3Sc3ccc(Cl)cc32)CC1', 'inhibition at 100 µM', '%', 66.5),
  ('Cc1cnc(C(=O)NCCc2ccc(S(=O)(=O)NC(=O)NC3CCCCC3)cc2)cn1 [GLIPIZIDE]', 'inhibition at 100 µM', '%', -12.7),
  ('CC(=O)O[C@H]1C[C@@H]2CC[C@@H]3[C@H](CC[C@@]4(C)[C@H]3C[C@H]([N+]3(C)CCCCC3)[C@@H]4OC(C)=O)[C@@]2(C)C[C@@H]1[N+]1(C)CCCCC1', 'inhibition at 100 µM', '%', -10.3),
  ('CC(C)(C)NCC(O)c1cc(O)cc(O)c1 (stereo not drawn)', 'inhibition at 100 µM', '%', 2.6),
  ('Cc1cccc(CN2CCN(C(c3ccccc3)c3ccc(Cl)cc3)CC2)c1 (stereo not drawn)', 'inhibition at 100 µM', '%', 16.4),
  ('CCCNCC(O)COc1ccccc1C(=O)CCc1ccccc1 (stereo not drawn)', 'inhibition at 100 µM', '%', 83.8),
  ('CC(C)(C)c1ccc(C(O)CCCN2CCC(C(O)(c3ccccc3)c3ccccc3)CC2)cc1 (stereo not drawn)', 'inhibition at 100 µM', '%', 65.4),
  ('O=C(O)c1cc(/N=N/c2ccc(S(=O)(=O)Nc3ccccn3)cc2)ccc1O', 'inhibition at 100 µM', '%', -3.7),
  ('O=C(N[C@H](CO)[C@H](O)c1ccc([N+](=O)[O-])cc1)C(Cl)Cl', 'inhibition at 100 µM', '%', 1.4),
  ('C[N+]1(C)CCCC(OC(=O)C(O)(c2ccccc2)c2ccccc2)C1 (stereo not drawn) [MEPENZOLATE BROMIDE]', 'inhibition at 100 µM', '%', 59.5),
  ('CO[C@H]1/C=C/O[C@@]2(C)Oc3c(C)c(O)c4c(O)c(c(/C=N/N5CCN(C)CC5)c(O)c4c3C2=O)NC(=O)/C(C)=C\C=C\[C@H](C)[C@H](O)[C@@H](C)[C@@H](O)[C@@H](C)[C@H](OC(C)=O)[C@@H]1C', 'inhibition at 100 µM', '%', 26.2),
  ('CN(C)CCCN1c2ccccc2Sc2ccccc21', 'inhibition at 100 µM', '%', 79.2),
  ('NCCS', 'inhibition at 100 µM', '%', 2.4),
  ('C[C@]12CCC(=O)C=C1CC[C@@H]1[C@@H]2CC[C@]2(C)C(=O)CC[C@@H]12', 'inhibition at 100 µM', '%', 65.1),
  ('CN1CCN(C2=Nc3cc(Cl)ccc3Nc3ccccc32)CC1', 'inhibition at 100 µM', '%', 47.5),
  ('COC(=O)CCc1ccc(OCC(O)CNC(C)C)cc1 (stereo not drawn)', 'inhibition at 100 µM', '%', 31.2),
  ('CCCC(C)(COC(N)=O)COC(=O)NC(C)C (stereo not drawn)', 'inhibition at 100 µM', '%', 19.8),
  ('CN(C)C(=O)Oc1cccc([N+](C)(C)C)c1 [NEOSTIGMINE BROMIDE]', 'inhibition at 100 µM', '%', 19.4),
  ('CCN(CC)CC#CCOC(=O)C(O)(c1ccccc1)C1CCCCC1 (stereo not drawn)', 'inhibition at 100 µM', '%', 75.7),
  ('COc1cc2nc(N3CCN(C(=O)C4CCCO4)CC3)nc(N)c2cc1OC (stereo not drawn)', 'inhibition at 100 µM', '%', 77);

---

# testTarget: OCT1 (SLC22A1) (Homo sapiens, UniProt O15245)
# Sequence (O15245 whole entry): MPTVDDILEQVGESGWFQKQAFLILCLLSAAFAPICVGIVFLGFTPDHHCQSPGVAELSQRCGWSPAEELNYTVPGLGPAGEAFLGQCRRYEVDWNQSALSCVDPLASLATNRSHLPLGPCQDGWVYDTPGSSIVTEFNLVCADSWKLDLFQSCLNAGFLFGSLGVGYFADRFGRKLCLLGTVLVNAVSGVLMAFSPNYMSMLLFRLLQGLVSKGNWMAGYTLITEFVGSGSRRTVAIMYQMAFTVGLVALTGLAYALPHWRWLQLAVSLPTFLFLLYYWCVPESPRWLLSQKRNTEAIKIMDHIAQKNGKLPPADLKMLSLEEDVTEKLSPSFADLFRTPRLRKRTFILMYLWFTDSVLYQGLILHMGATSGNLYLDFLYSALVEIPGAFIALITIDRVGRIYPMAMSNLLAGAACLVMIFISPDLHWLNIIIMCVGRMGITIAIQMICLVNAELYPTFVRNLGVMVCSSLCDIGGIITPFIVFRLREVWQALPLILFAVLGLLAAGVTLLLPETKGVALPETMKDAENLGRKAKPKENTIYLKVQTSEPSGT
# measurementNotes: in vitro
# conditionParameters: HEK293 cells that express human OCT1, probe 4-(4-(dimethylamino)styryl)-N-methylpyridinium
Catalogue of molecules with associated inhibition at 100 µM
experimentalEndpoint: inhibition at 100 µM

INSERT INTO results (molecule, reportedresult) VALUES
  ('N[C@@H](Cc1cc(I)c(Oc2cc(I)c(O)c(I)c2)c(I)c1)C(=O)O [LEVOTHYROXINE]', '12.7%'),
  ('CC(C)Cc1ccc(C(C)C(=O)O)cc1 (stereo not drawn) [IBUPROFEN]', '6.3%'),
  ('OCCN1CCN(CCCN2c3ccccc3Sc3ccc(C(F)(F)F)cc32)CC1 [FLUPHENAZINE]', '61.9%');
